- Test system: off-target genomic sites
- assay_comment: Off-target oligo insertion based assay in HEK293_Cas9 cells, dgRNAs and sgRNAs (Tables 23, 24)
- Format: cell-based, human
- test_settings: Table 30; TTR sgRNAs, HekCas9 cells, repeated from Example 5 for comparison
Strand notation (5' to 3'): a small letter for the sugar, then the base; units joined by * are phosphorothioate-linked, units joined directly phosphodiester-linked; [ ] holds rarer units or linkages, { } end groups; capitals alone tell only the bases. m = 2'-O-methyl; r = 2'-OH (RNA)
Consider the following molecules; for each one, report its # Sites in HekCas9 cells (Example 5).
Give bare numbers.

Study these solved cases before continuing.
| molecule | # Sites in HekCas9 cells (Example 5) |
| --- | --- |
| G000485: TTR sgRNA modified sequence, Human, SEQ ID No. 92; guide sequence of CR003336 (nucleic acid) guide: mC*mC*mU*rCrCrUrCrUrGrCrCrUrUrGrCrUrGrGrArCrGrUrUrUrUrArGrAmGmCmUmAmGmAmAmAmUmAmGmCrArArGrUrUrArArArArUrArArGrGrCrUrArGrUrCrCrGrUrUrArUrCrAmAmCmUmUmGmAmAmAmAmAmGmUmGmGmCmAmCmCmGmAmGmUmCmGmGmUmGmCmU*mU*mU*mU | 22 |
| G000492: TTR sgRNA modified sequence, Human, SEQ ID No. 99; guide sequence of CR003342 (nucleic acid) guide: mC*mU*mU*rCrUrCrUrArCrArCrCrCrArGrGrGrCrArCrGrUrUrUrUrArGrAmGmCmUmAmGmAmAmAmUmAmGmCrArArGrUrUrArArArArUrArArGrGrCrUrArGrUrCrCrGrUrUrArUrCrAmAmCmUmUmGmAmAmAmAmAmGmUmGmGmCmAmCmCmGmAmGmUmCmGmGmUmGmCmU*mU*mU*mU | 97 |
| G000489: TTR sgRNA modified sequence, Human, SEQ ID No. 96; guide sequence of CR003344 (nucleic acid) guide: mU*mU*mU*rGrArCrCrArUrCrArGrArGrGrArCrArCrUrGrUrUrUrUrArGrAmGmCmUmAmGmAmAmAmUmAmGmCrArArGrUrUrArArArArUrArArGrGrCrUrArGrUrCrCrGrUrUrArUrCrAmAmCmUmUmGmAmAmAmAmAmGmUmGmGmCmAmCmCmGmAmGmUmCmGmGmUmGmCmU*mU*mU*mU | 19 |

Fill in # Sites in HekCas9 cells (Example 5) for each of the 7 molecules listed.
1. G000487: TTR sgRNA modified sequence, Human, SEQ ID No. 94; guide sequence of CR003357 (nucleic acid) guide: mU*mU*mC*rUrUrUrGrGrCrArArCrUrUrArCrCrCrArGrGrUrUrUrUrArGrAmGmCmUmAmGmAmAmAmUmAmGmCrArArGrUrUrArArArArUrArArGrGrCrUrArGrUrCrCrGrUrUrArUrCrAmAmCmUmUmGmAmAmAmAmAmGmUmGmGmCmAmCmCmGmAmGmUmCmGmGmUmGmCmU*mU*mU*mU
2. G000484: TTR sgRNA modified sequence, Human, SEQ ID No. 91; guide sequence of CR003367 (nucleic acid) guide: mA*mG*mA*rCrArCrCrArArArUrCrUrUrArCrUrGrGrArGrUrUrUrUrArGrAmGmCmUmAmGmAmAmAmUmAmGmCrArArGrUrUrArArArArUrArArGrGrCrUrArGrUrCrCrGrUrUrArUrCrAmAmCmUmUmGmAmAmAmAmAmGmUmGmGmCmAmCmCmGmAmGmUmCmGmGmUmGmCmU*mU*mU*mU
3. G000499: TTR sgRNA modified sequence, Human, SEQ ID No. 106; guide sequence of CR005303 (nucleic acid) guide: mU*mG*mA*rArUrCrCrArArGrUrGrUrCrCrUrCrUrGrArGrUrUrUrUrArGrAmGmCmUmAmGmAmAmAmUmAmGmCrArArGrUrUrArArArArUrArArGrGrCrUrArGrUrCrCrGrUrUrArUrCrAmAmCmUmUmGmAmAmAmAmAmGmUmGmGmCmAmCmCmGmAmGmUmCmGmGmUmGmCmU*mU*mU*mU
4. G000567: TTR sgRNA modified sequence, Human, SEQ ID No. 109; guide sequence of CR003352 (nucleic acid) guide: mG*mA*mA*rArGrGrCrUrGrCrUrGrArUrGrArCrArCrCrGrUrUrUrUrArGrAmGmCmUmAmGmAmAmAmUmAmGmCrArArGrUrUrArArArArUrArArGrGrCrUrArGrUrCrCrGrUrUrArUrCrAmAmCmUmUmGmAmAmAmAmAmGmUmGmGmCmAmCmCmGmAmGmUmCmGmGmUmGmCmU*mU*mU*mU
5. G000496: TTR sgRNA modified sequence, Human, SEQ ID No. 103; guide sequence of CR005304 (nucleic acid) guide: mG*mG*mC*rCrGrUrGrCrArUrGrUrGrUrUrCrArGrArArGrUrUrUrUrArGrAmGmCmUmAmGmAmAmAmUmAmGmCrArArGrUrUrArArArArUrArArGrGrCrUrArGrUrCrCrGrUrUrArUrCrAmAmCmUmUmGmAmAmAmAmAmGmUmGmGmCmAmCmCmGmAmGmUmCmGmGmUmGmCmU*mU*mU*mU
6. G000568: TTR sgRNA modified sequence, Human, SEQ ID No. 110; guide sequence of CR003391 (nucleic acid) guide: mG*mG*mC*rUrGrUrCrGrUrCrArCrCrArArUrCrCrCrArGrUrUrUrUrArGrAmGmCmUmAmGmAmAmAmUmAmGmCrArArGrUrUrArArArArUrArArGrGrCrUrArGrUrCrCrGrUrUrArUrCrAmAmCmUmUmGmAmAmAmAmAmGmUmGmGmCmAmCmCmGmAmGmUmCmGmGmUmGmCmU*mU*mU*mU
7. G000498: TTR sgRNA modified sequence, Human, SEQ ID No. 105; guide sequence of CR003359 (nucleic acid) guide: mA*mG*mU*rGrArGrUrCrUrGrGrArGrArGrCrUrGrCrArGrUrUrUrUrArGrAmGmCmUmAmGmAmAmAmUmAmGmCrArArGrUrUrArArArArUrArArGrGrCrUrArGrUrCrCrGrUrUrArUrCrAmAmCmUmUmGmAmAmAmAmAmGmUmGmGmCmAmCmCmGmAmGmUmCmGmGmUmGmCmU*mU*mU*mU

Result ::
14
7
4
9
1
936
82

Values were extracted from patent US11795460B2.
